molecular target: 5-hydroxytryptamine receptor 2C (Homo sapiens, UniProt P28335); test: Antagonist activity at human recombinant 5-HT2C receptor expressed in Flp-In HEK cells in the presence of agonist preincubated for 10 mins by FLIPR based calcium mobilization assay
Sequence (P28335 whole entry): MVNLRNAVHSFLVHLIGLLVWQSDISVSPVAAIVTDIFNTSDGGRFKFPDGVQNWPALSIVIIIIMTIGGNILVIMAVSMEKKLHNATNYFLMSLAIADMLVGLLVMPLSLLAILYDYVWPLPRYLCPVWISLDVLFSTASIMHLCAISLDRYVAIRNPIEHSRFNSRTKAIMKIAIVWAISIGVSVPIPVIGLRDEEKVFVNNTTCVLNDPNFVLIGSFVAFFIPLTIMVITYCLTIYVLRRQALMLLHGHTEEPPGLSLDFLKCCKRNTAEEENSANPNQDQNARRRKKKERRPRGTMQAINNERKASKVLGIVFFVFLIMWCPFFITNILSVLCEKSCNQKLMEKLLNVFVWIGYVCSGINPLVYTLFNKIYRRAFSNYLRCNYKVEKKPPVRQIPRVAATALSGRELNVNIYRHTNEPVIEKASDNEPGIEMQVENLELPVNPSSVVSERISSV
property.measured: pIC50
Value format note: pIC50 is -log10 of concentration (mol/L); just state the number.

[ask] Give reported pIC50 for "COc1ccc(CCN(CCCc2ccccc2)CCc2ccc3c(c2)OCO3)cc1OC" (5-hydroxytryptamine receptor 2C (Homo sapiens, UniProt P28335))
[reply] 4.90

* * *

assay: Displacement of [3H]Pentazocine from Guinea pig sigma 1 receptor after 90 mins by scintillation counting method; set-up: species or system Cavia porcellus
property.measured: Ki (nM)
The reply should be a number in nM, with the unit left off.

[ask] // fetch Ki given entry "COc1ccc(CCN(CCCc2ccccc2)CCc2ccc3c(c2)OCO3)cc1OC"
[reply] 176

* * *

target: Sodium-dependent serotonin transporter (Homo sapiens); assay: Displacement of [3H]Citalopram from human serotonin transporter transporter stably expressed in HEK293 cells after 30 mins by neurotransmitter transporter uptake assay; type: cell-based
Sequence (P31645 whole entry): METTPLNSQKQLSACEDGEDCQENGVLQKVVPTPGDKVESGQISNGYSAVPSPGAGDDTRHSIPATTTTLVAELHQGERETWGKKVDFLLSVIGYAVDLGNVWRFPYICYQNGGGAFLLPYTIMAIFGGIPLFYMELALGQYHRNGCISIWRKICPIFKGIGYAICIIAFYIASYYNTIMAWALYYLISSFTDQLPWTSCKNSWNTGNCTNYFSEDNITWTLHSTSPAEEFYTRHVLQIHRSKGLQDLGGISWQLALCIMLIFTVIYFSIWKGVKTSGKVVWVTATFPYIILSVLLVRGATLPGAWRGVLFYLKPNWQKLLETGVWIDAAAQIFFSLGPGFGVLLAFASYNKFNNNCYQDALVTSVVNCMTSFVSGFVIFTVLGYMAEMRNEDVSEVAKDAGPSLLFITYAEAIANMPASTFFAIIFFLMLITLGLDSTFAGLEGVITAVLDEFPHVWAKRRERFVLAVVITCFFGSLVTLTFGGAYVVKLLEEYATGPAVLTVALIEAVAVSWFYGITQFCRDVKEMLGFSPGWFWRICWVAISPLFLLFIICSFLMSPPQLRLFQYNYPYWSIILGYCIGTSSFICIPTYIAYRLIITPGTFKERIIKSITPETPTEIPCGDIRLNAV
property.measured: Ki (nM)
The reply should be a number in nM, with the unit left off.

[ask] // fetch Ki given entry "COc1ccc(CCN(CCCc2ccccc2)CCc2ccc3c(c2)OCO3)cc1OC"
[reply] 1000

* * *

target: 5-hydroxytryptamine receptor 2A (Homo sapiens); test: Displacement of [3H]ketanserin from human recombinant 5-HT2A receptor expressed in HEKT cell membrane at 10 uM after 90 mins by scintillation counting method; type: cell membranes
property.measured: inhibition

Worked examples follow.
[ask] // fetch inhibition given entry "COc1cccc(CCCN(CCc2ccc(OC)c(OC)c2)Cc2ccc3c(c2)OCO3)c1"
[reply] > 50%

[ask] // fetch inhibition given entry "COc1ccc(CCN(CCCc2cc(OC)c(OC)c(OC)c2)Cc2ccc3c(c2)OCO3)cc1OC"
[reply] > 50%

[ask] // fetch inhibition given entry "COc1ccc(CCN(CCCc2cc(OC)c(OC)c(OC)c2)CCc2ccc3c(c2)OCO3)cc1OC"
[reply] > 50%

[ask] // fetch inhibition given entry "COc1ccc(CCN(CCCc2ccccc2)CCc2ccc3c(c2)OCO3)cc1OC"
[reply] > 50%

[ask] // fetch inhibition given entry "COc1ccc(CCN(CCc2ccc3c(c2)OCO3)Cc2ccccc2)cc1OC"
[reply] > 50%

New cases:
[ask] // fetch inhibition given entry "COc1ccc(CCN(CCc2ccccc2)CCc2ccc3c(c2)OCO3)cc1OC"
[reply] > 50%

* * *

molecular target: 5-hydroxytryptamine receptor 2A (Homo sapiens, UniProt P28223); assay: Displacement of [3H]ketanserin from human recombinant 5-HT2A receptor expressed in HEKT cell membrane after 90 mins by scintillation counting method
Sequence (P28223 whole entry): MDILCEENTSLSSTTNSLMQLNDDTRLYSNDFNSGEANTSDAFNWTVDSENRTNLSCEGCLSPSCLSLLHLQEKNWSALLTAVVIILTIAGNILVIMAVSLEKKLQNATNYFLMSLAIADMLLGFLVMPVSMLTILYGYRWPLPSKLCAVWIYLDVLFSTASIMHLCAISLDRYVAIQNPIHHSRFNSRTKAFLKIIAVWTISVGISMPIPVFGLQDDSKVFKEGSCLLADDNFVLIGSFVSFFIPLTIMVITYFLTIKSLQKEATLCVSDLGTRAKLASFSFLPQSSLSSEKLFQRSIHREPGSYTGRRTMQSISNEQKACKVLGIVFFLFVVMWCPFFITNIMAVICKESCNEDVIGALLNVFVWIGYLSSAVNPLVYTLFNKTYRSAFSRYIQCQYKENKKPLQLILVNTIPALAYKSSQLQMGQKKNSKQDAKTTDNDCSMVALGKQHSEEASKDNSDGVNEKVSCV
property.measured: Ki (nM)
The reply should be a number in nM, with the unit left off.

Worked examples follow.
[ask] // fetch Ki given entry "COc1ccc(CCN(CCc2ccc3c(c2)OCO3)Cc2ccccc2)cc1OC"
[reply] 3530

[ask] // fetch Ki given entry "COc1ccc(CCN(CCCc2cc(OC)c(OC)c(OC)c2)CCc2ccc3c(c2)OCO3)cc1OC"
[reply] 146

[ask] // fetch Ki given entry "COc1ccc(CCN(CCCc2ccccc2)CCc2ccc3c(c2)OCO3)cc1OC"
[reply] 165

[ask] // fetch Ki given entry "COc1cccc(CCCN(CCc2ccc(OC)c(OC)c2)CCc2ccc3c(c2)OCO3)c1"
[reply] 200

New cases:
[ask] // fetch Ki given entry "COc1ccc(CCN(CCc2ccccc2)CCc2ccc3c(c2)OCO3)cc1OC"
[reply] 1470

[ask] // fetch Ki given entry "COc1ccc(OC)c(CCCN(CCc2ccc(OC)c(OC)c2)CCc2ccc3c(c2)OCO3)c1"
[reply] 919

[ask] // fetch Ki given entry "COc1ccccc1CCCN(CCc1ccc(OC)c(OC)c1)CCc1ccc2c(c1)OCO2"
[reply] 140

* * *

system: HEK293; assay: Selectivity ratio of Ki for human recombinant 5-HT2A receptor expressed in HEKT cell membrane to Ki for human recombinant 5-HT2B receptor stably expressed in HEK cells; assay type: cell-based
# Ratio Ki per entry
Give the figure only, with no unit attached.

Worked examples follow.
[ask] Give reported Ratio Ki for "COc1cccc(CCCN(CCc2ccc(OC)c(OC)c2)Cc2ccc3c(c2)OCO3)c1" (HEK293)
[reply] 26

[ask] Give reported Ratio Ki for "COc1ccc(CCN(CCCc2cc(OC)c(OC)c(OC)c2)CCc2ccc3c(c2)OCO3)cc1OC" (HEK293)
[reply] 36

[ask] Give reported Ratio Ki for "COc1ccc(OC)c(CCCN(CCc2ccc(OC)c(OC)c2)CCc2ccc3c(c2)OCO3)c1" (HEK293)
[reply] 26

As a next step, examine the compound that follows.
[ask] Give reported Ratio Ki for "COc1ccc(CCN(CC/C=C\c2ccccc2)Cc2ccc3c(c2)OCO3)cc1OC" (HEK293)
[reply] 11

* * *

molecular target: 5-hydroxytryptamine receptor 2A (Homo sapiens, UniProt P28223); assay: Displacement of [3H]ketanserin from human recombinant 5-HT2A receptor expressed in HEKT cell membrane after 90 mins by scintillation counting method
property.measured: pKi
Value format note: pKi is -log10 of concentration (mol/L); just state the number.

[ask] // fetch pKi given entry "COc1cccc(CCCN(CCc2ccc(OC)c(OC)c2)Cc2ccc3c(c2)OCO3)c1"
[reply] 5.82

[ask] // fetch pKi given entry "COc1ccc(CCN(CCCc2cc(OC)c(OC)c(OC)c2)Cc2ccc3c(c2)OCO3)cc1OC"
[reply] 5.65

[ask] // fetch pKi given entry "COc1ccc(CCN(CC/C=C\c2ccccc2)Cc2ccc3c(c2)OCO3)cc1OC"
[reply] 6.65

New cases:
[ask] // fetch pKi given entry "COc1ccc(CCCN(CCc2ccc(OC)c(OC)c2)CCc2ccc3c(c2)OCO3)cc1"
[reply] 6.57
